Entry source: the supplement of paper PMC11246515

Assay: total protein half-life in vivo (active degradation + dilution); higher = more stable protein
Settings: E. coli NCM3722 delta-lon; growth: N-lim chemostat; doubling time 6 h
Label Condition met when total protein half-life in vivo is at or above 4 h; otherwise label Condition not met.

{"columns": ["CHAIN_SEQUENCE", "CLASS_ASSIGNMENT"],
 "data": [
  ["METKNLTIGERIRYRRKNLKHTQRSLAKALKISHVSVSQWERGDSEPTGKNLFALSKVLQCSPTWILFGDEDKQPTPPVEKPVALSPKELELLELFNALPESEQDTQLAEMRARVKNFNKLFEELLKARQRTNKR", "Condition met"],
  ["MVKSQPILRYILRGIPAIAVAVLLSACSANNTAKNMHPETRAVGSETSSLQASQDEFENLVRNVDVKSRIMDQYADWKGVRYRLGGSTKKGIDCSGFVQRTFREQFGLELPRSTYEQQEMGKSVSRSNLRTGDLVLFRAGSTGRHVGIYIGNNQFVHASTSSGVIISSMNEPYWKKRYNEARRVLSRS [P0AFV4]", "Condition not met"],
  ["MSRPTIIINDLDAERIDILLEQPAYAGLPIADALNAELDRAQMCSPEEMPHDVVTMNSRVKFRNLSDGEVRVRTLVYPAKMTDSNTQLSVMAPVGAALLGLRVGDSIHWELPGGVATHLEVLELEYQPEAAGDYLL [P0AFW4]", "Condition not met"],
  ["MIEWQDLHHSELSVSQLYALLQLRCAVFVVEQNCPYQDIDGDDLTGDNRHILGWKNDELVAYARILKSDDDLEPVVIGRVIVSEALRGEKVGQQLMSKTLETCTHHWPDKPVYLGAQAHLQNFYQSFGFIPVTEVYEEDGIPHIGMAREVIQA [P0AEH3]", "Condition not met"],
  ["MLIFEGKEIETDTEGYLKESSQWSEPLAVVIAENEGISLSPEHWEVVRFVRDFYLEFNTSPAIRMLVKAMANKFGEEKGNSRYLYRLFPKGPAKQATKIAGLPKPVKCI [P0AB18]", "Condition met"],
  ["MNIENLKTKAEADISEYITKKIIELKKKTGKEVTSIQFTAREKMTGLESYDVKINLI", "Condition met"],
  ["MNKETQPIDRETLLKEANKIIREHEDTLAGIEATGVTQRNGVLVFTGDYFLDEQGLPTAKSTAVFNMFKHLAHVLSEKYHLVD [P0AB61]", "Condition not met"],
  ["MLKRFFITGTDTSVGKTVVSRALLQALASQGKTVAGYKPVAKGSKETPEGLRNKDALVLQSVSTIELPYEAVNPIALSEEESSVAHSCPINYTLISNGLANLTEKVDHVVVEGTGGWRSLMNDLRPLSEWVVQEQLPVLMVVGIQEGCINHALLTAQAIANDGLPLIGWVANRINPGLAHYAEIIDVLGKKLPAPLIGELPYLPRAEQRELGQYIRLAMLRSVLAVDRVTV [P0A6E9]", "Condition not met"]
]}

Next item in the queue.
Assess whether reported total protein half-life in vivo for MLIIETLPLLRQQIRRLRMEGKRVALVPTMGNLHDGHMKLVDEAKARADVVVVSIFVNPMQFDRPEDLARYPRTLQEDCEKLNKRKVDLVFAPSVKEIYPNGTETHTYVDVPGLSTMLEGASRPGHFRGVSTIVSKLFNLVQPDIACFGEKDFQQLALIRKMVADMGFDIEIVGVPIMRAKDGLALSSRNGYLTAEQRKIAPGLYKVLSSIADKLQAGERDLDEIITIAGQELNEKGFRADDIQIRDADTLLEVSETSKRAVILVAAWLGDARLIDNKMVELA sits at 4 h or higher.
Condition met

---

Assay: total protein half-life in vivo (active degradation + dilution); higher = more stable protein
Conditions: E. coli NCM3722 delta-smpB; growth: N-lim chemostat; doubling time 6 h
MEASUREMENT_LABEL: total protein half-life in vivo (h)
Give the value in h but do not write h after it.

Illustrative cases are given below, each with its answer.
{"columns": ["CHAIN_SEQUENCE", "UNITS", "VALUE_REPORTED"],
 "data": [
  ["MVKVYAPASSANMSVGFDVLGAAVTPVDGALLGDVVTVEAAETFSLNNLGRFADKLPSEPRENIVYQCWERFCQELGKQIPVAMTLEKNMPIGSGLGSSACSVVAALMAMNEHCGKPLNDTRLLALMGELEGRISGSIHYDNVAPCFLGGMQLMIEENDIISQQVPGFDEWLWVLAYPGIKVSTAEARAILPAQYRRQDCIAHGRHLAGFIHACYSRQPELAAKLMKDVIAEPYRERLLPGFRQARQAVAEIGAVASGISGSGPTLFALCDKPETAQRVADWLGKNYLQNQEGFVHICRLDTAGARVLEN", "h", 4.35],
  ["MMLSKKNSETLENFSEKLEVEGRSLWQDARRRFMHNRAAVASLIVLVLIALFVILAPMLSQFAYDDTDWAMMSSAPDMESGHYFGTDSSGRDLLVRVAIGGRISLMVGVAAALVAVVVGTLYGSLSGYLGGKVDSVMMRLLEILNSFPFMFFVILLVTFFGQNILLIFVAIGMVSWLDMARIVRGQTLSLKRKEFIEAAQVGGVSTSGIVIRHIVPNVLGVVVVYASLLVPSMILFESFLSFLGLGTQEPLSSWGALLSDGANSMEVSPWLLLFPAGFLVVTLFCFNFIGDGLRDALDPKDR [P0AFH6]", "h", 5.01]
]}

# ---- query sequence ----
Fill in: total protein half-life in vivo of MTTLAIDIGGTKLAAALIGADGQIRDRRELPTPASQTPEALRDALSALVSPLQAHAQRVAIASTGIIRDGSLLALNPHNLGGLLHFPLVKTLEQLTNLPTIAINDAQAAAWAEFQALDGDITDMVFITVSTGVGGGVVSGCKLLTGPGGLAGHIGHTLADPHGPVCGCGRTGCVEAIASGRGIAAAAQGELAGADAKTIFTRAGQGDEQAQQLIHRSARTLARLIADIKATTDCQCVVVGGSVGLAEGYLALVETYLAQEPAAFHVDLLAAHYRHDAGLLGAALLAQGEKL is ___
4.85

---

In this section, each of the sequences is paired with its reported total protein half-life in vivo.
Assay: total protein half-life in vivo (active degradation + dilution); higher = more stable protein
Conditions: wild type E. coli NCM3722; growth: N-lim chemostat; doubling time 12 h
State the answer as a number, implicitly in h.

The examples below pair each entry with its known result.
{"columns": ["CHAIN_SEQUENCE", "MEASUREMENT_LABEL", "VALUE_REPORTED"],
 "data": [
  ["MHKAILNSDLIATKAGDVTVYNYDGETREYISTSNEYLAVGVGIPACSCLDAPGTHKAGYAICRSADFNSWEYVPDHRGETVYSTKTGESKEIKAPGDYPENTTTIAPLSPYDKWDGEKWVTDTEAQHSAAVDAAEAQRQSLIDAAMASISLIQLKLQAGRKLTQAETTRLNAVLDYIDAVTATDTSTAPDVIWPELPEA", "total protein half-life in vivo", 3.07],
  ["MSKSRLTVFSFVRRFLLRLMVVLAVFWGGGIALFSVAPVPFSAVMVERQVSAWLHGNFRYVAHSDWVSMDQISPWMGLAVIAAEDQKFPEHWGFDVASIEKALAHNERNENRIRGASTISQQTAKNLFLWDGRSWVRKGLEAGLTLGIETVWSKKRILTVYLNIAEFGDGVFGVEAAAQRYFHKPASKLTRSEAALLAAVLPNPLRFKVSSPSGYVRSRQAWILRQMYQLGGEPFMQQHQLD", "total protein half-life in vivo", 12.3]
]}

Now for another entry.
Value lookup for total protein half-life in vivo; key = MSELNDLLTTRELQRWRLILGEAAETTLCGLDDNARQIDHALEWLYGRDPERLQRGERSGGLGGSNLTTPEWINSIHTLFPQQVIERLESDAVLRYGIEDVVTNLDVLERMQPSESLLRAVLHTKHLMNPEVLAAARRIVCQVVEEIMARLAKEVRQAFSGVRDRRRRSFIPLARNFDFKSTLRANLQHWHPQHGKLYIESPRFNSRIKRQSEQWQLVLLVDQSGSMVDSVIHSAVMAACLWQLPGIRTHLVAFDTSVVDLTADVADPVELLMKVQLGGGTNIASAVEYGRQLIEQPAKSVIILVSDFYEGGSSSLLTHQVKKCVQSGIKVLGLAALDSTATPCYDRDTAQALVNVGAQIAAMTPGELASWLAENLQS
8.61

---

# Lookup of reported total protein half-life in vivo keyed by entry
Test: total protein half-life in vivo (active degradation + dilution); higher = more stable protein
Details: wild type E. coli NCM3722; growth: P-lim chemostat; doubling time 6 h
Answer format: numeric, h implied, no suffix.

{"columns": ["CHAIN_SEQUENCE", "total protein half-life in vivo, h"],
 "data": [
  ["MGLMNAFDSQTEDSSPAIGRNLRSRPLARKKLSEMVEEELEQMIRRREFGEGEQLPSERELMAFFNVGRPSVREALAALKRKGLVQINNGERARVSRPSADTIIGELSGMAKDFLSHPGGIAHFEQLRLFFESSLVRYAAEHATDEQIDLLAKALEINSQSLDNNAAFIRSDVDFHRVLAEIPGNPIFMAIHVALLDWLIAARPTVTDQALHEHNNVSYQQHIAIVDAIRRHDPDEADRALQSHLNSVSATWHAFGQTTNKKK [P0A8W0]", 3.59]
]}

Let us move to another entry and its total protein half-life in vivo.
Fill in the blank: the reported total protein half-life in vivo of MYQVVASDLDGTLLSPDHTLSPYAKETLKLLTARGINFVFATGRHHVDVGQIRDNLEIKSYMITSNGARVHDLDGNLIFAHNLDRDIASDLFGVVNDNPDIITNVYRDDEWFMNRHRPEEMRFFKEAVFQYALYEPGLLEPEGVSKVFFTCDSHEQLLPLEQAINARWGDRVNVSFSTLTCLEVMAGGVSKGHALEAVAKKLGYSLKDCIAFGDGMNDAEMLSMAGKGCIMGSAHQRLKDLHPELEVIGTNADDAVPHYLRKLYLS is ____.
4.82
